Recorded growth inhibition, one value per entry.
- measurementNotes: NCI Yeast Anticancer Drug Screen. Data for the sgs1 mgt1 strain (AID 161);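 further: 0% = growth of cultures given vehicle only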
- condition: S. cerevisiae sgs1 mgt1 strain, at 50.0 µM (retest, dose inferred, filed as 5.0), active compounds read high
This is part of a sample that, as a whole, favours compounds with a hit. Of some 79,000 tested, about 15% had one in any assay. Calls of active or inactive are those of the source. No stated cut-off is given here; in the data, active means growth inhibition above about 70%; inactive means the rest.

Below, each entry is followed by its recorded growth inhibition result.
>>> print(df.to_string())
                                   molecule        testreadout          result
0  COc1cc(C)cc(C(=O)OCc2ccccc2)c1C1=C(Cl)C(=O)C(Cl)=CC1=O  growth inhibition   5% (inactive)
1  CC[O-].CC[O-].[O-]c1ccccc1C=Nc1ccccc1.[O-]c1ccccc1C=Nc1ccccc1.[Ti+4]  growth inhibition  12% (inactive)
2  OC(/C=C/c1ccccc1)(c1ccccc1)c1nc2ccccc2s1 (centres undefined)  growth inhibition    97% (active)
3  COc1ccc(-c2cc(-c3ccco3)c(C#N)c(=S)n2C2OC(CO)C(O)C(O)C2O)cc1 (centres undefined)  growth inhibition  -3% (inactive)
4  CCN(C(=O)C(F)(F)F)c1ccc2c(c1)C(=O)c1ccccc1-2  growth inhibition    87% (active)

Query: Let me know recorded growth inhibition for CCCCCCCCCCCCCCCCCC[N+]1(C)CCC[N+](C)(CCCCCCCCCCCCCCCCCC)CC1 (centres undefined) , thanks.
Result: 53% (inactive)

Query: Tell me growth inhibition reported for `O=C1/C(=C/c2ccc3c(c2)OCO3)Sc2scc(-c3ccc(O)c(O)c3)[n+]21`
Result: 98% (active)

Query: Tell me measured growth inhibition for `Cc1ccc(/C=N\NC(=S)N/N=C/c2ccc(C)cc2)cc1` please.
Result: 99% (active)

Query: Read the entry `Brc1ccc(N=Nc2ccc(-c3ccc[cH-]3)cc2)cc1.[Fe+2].c1cc[cH-]c1` and write its reported growth inhibition.
Result: -14% (inactive)

Query: Recall and state the measured growth inhibition for `O=[n+]1c2c(n([O-])c3ccc4ccccc4c31)-c1cccc3cccc-2c13` .
Result: -5% (inactive)

Query: Check the records and state growth inhibition for Clc1ccc(C2=C(c3ccccc3)C(c3ccc(Cl)cc3)N3C(=N[C@H]4CCCC[C@@H]43)N2)cc1 (some centres undefined)
Result: -27% (inactive)

Query: Given the molecule Cc1cc(O)ccc1C1(c2ccc(F)cc2)OC(=O)c2ccccc21 (centres undefined) , write its reported growth inhibition.
Result: 99% (active)

Query: State its growth inhibition for this molecule: `Nc1ccccc1Sc1ccccc1`
Result: 66% (inactive)

Query: Entry `Cc1cccc(N=Nc2ccc(O)cc2)c1` needs its growth inhibition filled in; supply it.
Result: 98% (active)

---

Attribute: growth inhibition
- measurementNotes: NCI Yeast Anticancer Drug Screen. Data for the cln2 rad14 strain (AID 165);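 further: 0% = growth equal to vehicle treated cultures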
- condition: S. cerevisiae cln2 rad14 strain, at 50.0 µM, active compounds read high
The panel holds about 79,000 compounds, 15% with a hit somewhere; the sample as a whole holds those more often.
State just the number; it will be interpreted in %.

Example results:
>>> print(df.to_string())
                                   compound  quantitativeresult
0  CCN(CC)c1cccc(OC(=O)Nc2cccc(C(F)(F)F)c2)c1                82.9
1  C1=NC2c3ccccc3Cc3cccc1c32 (stereo not given)                93.6
2  CNCCN[C@@H]1c2cc3c(cc2[C@@H](c2cc(OC)c(O)c(OC)c2)[C@H]2C(=O)OC[C@@H]21)OCO3                82.4
3  OCCC1CCN(CC/C=C2/c3ccc(F)cc3Sc3ccc(C(F)(F)F)cc32)CC1                71.4
4  CC(=O)OCC1OC(N2CCc3cc([N+](=O)[O-])ccc32)C(OC(C)=O)C(OC(C)=O)C1OC(C)=O (stereo not given)                41.9
5           O=C(O)/C=C/c1c2ccccc2cc2ccccc12                96.9
6  O=C(/C=C/c1ccc(Cl)c(Cl)c1)CCN1CCN(CCC(=O)/C=C/c2ccc(Cl)c(Cl)c2)CC1                86.3
7  O=C(/C=C/c1cccc2ccccc12)c1cccc([N+](=O)[O-])c1                   0
8                            BrCC1(CBr)COC1               -8.15

Query: Please report the measured growth inhibition for `Cc1nc(N)sc1N=Nc1cc(Cl)c([N+](=O)[O-])cc1Cl`
Result: 35.1

---

- measurementNotes: NCI Yeast Anticancer Drug Screen. Data for the bub3 strain (AID 167)
- condition: S. cerevisiae bub3 mutant strain, at 50.0 µM, active compounds read high
- Description: Growth inhibition of yeast strains with defined genetic alterations is measured as a screen for potential anti-cancer activity. Selected strains with alterations in DNA damage repair or cell cycle control were exposed to compounds and growth inhibition was measured relative to vehicle treated controls. The strain used in this assay is bub3
The panel holds about 79,000 compounds, 15% with a hit somewhere; the sample as a whole holds those more often.
testReadout: growth inhibition (%)
Just the number in %, nothing appended.

In [3]: df
Out[3]:
                                   compound        testreadout  quantitativeresult
0           Clc1cc(Cl)c2cc3cccc[n+]3cc2c1Cl  growth inhibition                87.8
1             CCCCCCNC(=S)N/N=C(\C)c1ccccn1  growth inhibition                90.5
2  COc1ccc(C2c3cc4c(cc3OC(N3CCCC3)C2C)OCO4)c(OC)c1 (stereo not given)  growth inhibition                87.8
3          O=C1c2ccccc2CN1Cc1ccc(Cl)c(Cl)c1  growth inhibition                79.4

Query: Given `Cc1n(CC(C)C)c2c([n+]1CC(=O)c1ccc([N+](=O)[O-])cc1)C(=O)c1ccccc1C2=O` , respond with its growth inhibition.
Result: 89.9

---

- measurementNotes: NCI Yeast Anticancer Drug Screen. Data for the bub3 strain (AID 167)
- condition: S. cerevisiae bub3 mutant strain, at 5.0 µM (retest, dose inferred, filed as 0.5)
Compounds without any hit were thinned out: in the full panel of roughly 79,000, 15% have a hit. The source made the active and inactive calls. Cut-off read from the data, not from the text of the source: active = growth inhibition above about 70%; inactive = the rest.
Write down one outcome, taken from true (1) = active, false (0) = inactive

Answered cases to consult:
In [3]: df
Out[3]:
                                   compound  classification
0  COC1/C=C/OC2(C)Oc3c(C)c(O)c4c(c3C2=O)C(=O)c2cnc(nc2C4=O)/C(C)=C\C=C\C(C)C(O)C(C)C(O)C(C)C(OC(C)=O)C1C (stereo not drawn)       false (0)
1  O=C1C(c2ccc([N+](=O)[O-])cc2)=C(Cl)C(=O)c2c(O)cccc21       false (0)
2  O=[N+]([O-])c1ccccc1NC1CCN(CCCC2(c3ccc(F)cc3)OCCO2)CC1       false (0)
3  O=C(Sc1c(-c2ccccc2)c(=O)n(-c2ccccc2)c(=S)n1-c1ccccc1)c1cccs1       false (0)
4  CNCC(OB(c1ccccc1)c1ccccc1)c1ccccc1 (stereo not drawn)       false (0)
5  C/C(=N/NC(=O)Nc1ccc(N=Nc2ccccc2)cc1)c1ccccn1       false (0)
6  c1ccc2c(c1)OCC(CNCCNCC1COc3ccccc3O1)O2 (stereo not drawn)       false (0)
7     Oc1cc(C(c2ccccc2)c2ccccc2)c2ccccc2c1O       false (0)
8  O=C1NN(C2=NNC3(C(=O)N2)c2ccccc2-c2ccccc23)C(c2ccccc2)=N/C1=C/c1ccc(Cl)cc1       false (0)
9  COc1cc(C=Nc2ccc(Cl)cc2)ccc1OC(=O)c1ccccc1       false (0)

Query: Please indicate how the test categorized `COc1ccc(-c2cc3ccccc3c(=O)n2Cc2ccccc2)cc1` .
Result: false (0)

Query: How was COC1(OC)C(C#N)(C#N)C2(C(=O)Nc3ccccc32)C1(OC)OC (stereo not drawn) classified in this test?
Result: false (0)

Query: Write down the call the test reported for this compound. Item: `O=S(=O)(Nc1ccccn1)c1ccc(N=Cc2c3ccccc3nc3cc(Cl)ccc23)cc1`
Result: false (0)

Query: Which outcome was assigned to `Cc1ccc(C)c(C(=O)/C=C/C(=O)O)c1` in this test?
Result: false (0)

Query: Per the records of this test, what outcome belongs to CC(C(O)Cc1ccccc1)N(C)N=Nc1ccc([N+](=O)[O-])cc1 (stereo not drawn) ?
Result: false (0)

Query: What was the test verdict on `CCNc1cc(SC)nc(N)n1` ?
Result: false (0)

Query: What is the recorded call for this compound in the test? CCC(/C=C/C(C)C1CCC2C3CC=C4C/C(=N/NC(N)=O)CCC4(C)C3CCC12C)C(C)C (stereo not drawn)
Result: false (0)

Query: Hi team, can someone confirm the assay call for `COc1ccc2c(C)c(N=C=S)c(=O)oc2c1` ?
Result: false (0)

Query: // outcome(item) with item = C/C=C/C(=O)NCC(C(C)C)/[N+]([O-])=N/O (stereo not drawn)
Result: true (1)

Query: What is the recorded call for this compound in the test? `c1ccc([P+](c2ccccc2)(c2ccccc2)C2CCCC2)cc1`
Result: false (0)

Query: // return assay outcome for `CCOc1ccc2nc([NH-])sc2c1.CCOc1ccc2nc([NH-])sc2c1.CCOc1ccc2nc([NH-])sc2c1.CCOc1ccc2nc([NH-])sc2c1.[Cl][Rh][Cl]`
Result: false (0)

Query: Could you please tell me the result logged for `C[N+](C)(CCO)Cc1ccccc1` in this assay?
Result: false (0)

Query: What classification did `N#CSC#CCCC#CSC#N` end up with in this test?
Result: true (1)

Query: Hey, what did the test say about `Oc1ccccc1C1N(Cc2ccc(Cl)cc2)CCN1Cc1ccc(Cl)cc1` ?
Result: false (0)

Query: Identify the outcome logged in this assay for the compound shown: O=C(O)c1ccc(NC(c2ccccc2)c2ccc3cccnc3c2O)cc1 (stereo not drawn)
Result: false (0)

Query: What call does the record list for COC(=O)c1ccccc1CC(Cc1ccc2c(c1)CCC2)C(=O)OC (stereo not drawn) ?
Result: false (0)

Query: Short answer needed: outcome of this test for `COc1cc(Cc2n[nH]c(=S)n2-c2ccccc2)c(S(N)(=O)=O)cc1OC` ?
Result: false (0)

Query: Which outcome was assigned to COc1ccc2c(c1)CCC(N1CCCC(O)C1)C2 (stereo not drawn) in this test?
Result: false (0)

Query: Write down the call the test reported for this compound. Item: `S=c1[nH]c(-c2ccccc2)cs1`
Result: false (0)
